Hello, the source for this data is ChEMBL document CHEMBL1961873, in case you need it.

Listing: inhibition of selected compounds
STUDY_TARGET: Ribosomal protein S6 kinase alpha-1 (Homo sapiens);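 also: values are mean percent inhibition of RSK1 measured in the GSK PKIS kinase inhibitor set screen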
ASSAY_CONDITIONS: at 0.1 µM
Write the answer as a number in %, unit excluded.

CN(C)c1ccc2c(c1)/C(=C/Nc1ccc(S(N)(=O)=O)cc1)C(=O)N2; 1.57

Enquiry: Find the recorded inhibition belonging to "COc1cc2ncn(-c3cc(OCCc4ccccc4)c(C(N)=O)s3)c2cc1OC" and report it.
Return: 0.33

Enquiry: Same again, this time with "Cc1ccc(C(=O)NC(C)C)cc1-c1ccc(C(=O)NCC2CC2)cc1"
Return: 1.38

Enquiry: Same again, this time with "O=C(Nc1n[nH]c2nc(-c3ccco3)ccc12)C1CC1"
Return: 0.92

Enquiry: Same again, this time with "COC(=O)Nc1nc2ccc(Sc3ccc(NC(=O)Nc4cc(C(F)(F)F)ccc4F)cc3)cc2[nH]1"
Return: -0.4

Enquiry: Same again, this time with "O=C(Nc1n[nH]c2cc(-c3ccccc3)ccc12)C1CC1"
Return: 0.84

Enquiry: Same again, this time with "c1ccc(Oc2ccc(Nc3ncc(-c4ccccc4)o3)cc2)cc1"
Return: 1.98

###

STUDY_TARGET: Ribosomal protein S6 kinase alpha-5 (Homo sapiens);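 also: mean inhibition of MSK1 reported, from a GSK PKIS inhibitor set screen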
ASSAY_CONDITIONS: at 0.1 µM
REPORTED_METRIC: inhibition (%)
Write the answer as a number in %, unit excluded.

Consider the following illustrative entries.
CS(=O)(=O)CCNCc1ccc(-c2ccc3ncnc(Nc4ccc(OCc5ccccc5)c(Br)c4)c3c2)o1; 1.16
COc1cc(Nc2ncc(-c3ccccc3)o2)cc(OC)c1OC; 0.23
Fc1ccc(-c2nc3n(c2-c2ccncc2)CCS3)cc1; 2.74
O=C1NC(=O)C(c2cccc(Cl)c2)=C1Nc1ccc(Cl)c(C(=O)O)c1; 3.03
FC(F)(F)c1cccc(Nc2nccc(-c3cnn4nc(-c5ccccc5)ccc34)n2)c1; 1.36
COC(=O)Nc1nc2ccc(Sc3ccc(NC(=O)Nc4cc(C(F)(F)F)ccc4F)cc3)cc2[nH]1; 1.97
CCc1nccc2c1nc(-c1nonc1N)n2CC; 6.51
C/C(Nc1ccc(S(N)(=O)=O)cc1)=C1/C(=O)Nc2ccccc21; 0
COc1ccc(-c2ccc3c(NC(=O)C4CC4)n[nH]c3n2)cc1; 1.32

Enquiry: Find the recorded inhibition belonging to "Cc1ccc(C(=O)NC(C)C)cc1-c1ccc(C(=O)NCC2CC2)cc1" and report it.
Return: -3.69

###

Listing: inhibition of selected compounds
Tested on: Tyrosine-protein kinase ABL1 (Homo sapiens), P00519 [E255K]
Sequence (P00519 whole entry E255K): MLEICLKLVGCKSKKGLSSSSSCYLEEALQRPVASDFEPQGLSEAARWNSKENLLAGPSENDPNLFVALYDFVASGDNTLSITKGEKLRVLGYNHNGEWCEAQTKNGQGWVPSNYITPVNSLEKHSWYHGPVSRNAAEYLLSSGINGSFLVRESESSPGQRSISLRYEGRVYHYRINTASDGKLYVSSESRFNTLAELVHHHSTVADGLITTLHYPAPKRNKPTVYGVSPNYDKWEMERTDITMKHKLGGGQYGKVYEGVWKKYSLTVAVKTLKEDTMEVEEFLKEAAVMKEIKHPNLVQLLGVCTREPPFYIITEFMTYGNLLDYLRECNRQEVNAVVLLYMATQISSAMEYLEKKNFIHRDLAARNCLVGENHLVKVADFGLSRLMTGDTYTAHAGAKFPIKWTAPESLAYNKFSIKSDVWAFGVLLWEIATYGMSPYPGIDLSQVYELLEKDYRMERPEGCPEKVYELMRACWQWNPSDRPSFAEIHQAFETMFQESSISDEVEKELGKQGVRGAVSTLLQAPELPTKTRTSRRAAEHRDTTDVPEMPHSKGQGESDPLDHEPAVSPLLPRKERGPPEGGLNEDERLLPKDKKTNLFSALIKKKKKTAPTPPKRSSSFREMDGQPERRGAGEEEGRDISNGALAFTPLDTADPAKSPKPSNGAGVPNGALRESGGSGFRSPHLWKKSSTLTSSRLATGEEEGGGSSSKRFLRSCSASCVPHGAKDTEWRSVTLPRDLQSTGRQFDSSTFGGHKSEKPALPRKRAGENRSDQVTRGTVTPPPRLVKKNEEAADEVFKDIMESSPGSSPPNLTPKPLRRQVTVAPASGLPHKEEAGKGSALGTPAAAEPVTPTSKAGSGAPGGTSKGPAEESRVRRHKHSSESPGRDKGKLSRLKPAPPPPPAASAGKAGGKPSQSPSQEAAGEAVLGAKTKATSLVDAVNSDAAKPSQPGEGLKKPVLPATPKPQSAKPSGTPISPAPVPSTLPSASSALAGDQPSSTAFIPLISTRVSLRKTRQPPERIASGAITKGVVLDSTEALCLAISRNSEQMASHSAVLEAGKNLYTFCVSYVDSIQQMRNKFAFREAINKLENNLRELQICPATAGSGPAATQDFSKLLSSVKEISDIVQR
ASSAY_CONDITIONS: at 1 µM
Write the answer as a number in %, unit excluded.

Consider the following illustrative entries.
Nc1nccc(-c2c(-c3ccc(F)cc3)ncn2C2CCC(O)CC2)n1 (stereo not given); 16.9
O=C(NCC1CC1)c1ccc(-c2cccc(C(=O)NC3CC3)c2)cc1; 3.09
CN1CCN(CCCNc2nc3ccc(Oc4ccc(NC(=O)Nc5cc(C(F)(F)F)ccc5F)cc4)cc3[nH]2)CC1; 4.6
CN(C)CCOc1ccc(-c2cc(-c3ccc4c(c3)CCC4=NO)c(-c3ccncc3)o2)cc1; 7.95
O=C(Nc1n[nH]c2nc(-c3ccco3)ccc12)C1CC1; 5.68

Enquiry: Find the recorded inhibition belonging to "Cc1ccc(NC(=O)c2ccoc2)cc1-c1ccc(C(=O)NCC2CC2)cc1" and report it.
Return: -0.37

Enquiry: Same again, this time with "Fc1ccc(-c2ncn(C3CCNCC3)c2-c2ccnc(Oc3ccc(F)c(F)c3)n2)cc1"
Return: 1.25

Enquiry: Same again, this time with "COc1cc2ncn(-c3cc(OCc4cccs4)c(C(N)=O)s3)c2cc1OC"
Return: 29.8

Enquiry: Same again, this time with "COc1ccc2ncn(-c3cc(O[C@H](C)c4ccccc4Cl)c(C(N)=O)s3)c2c1"
Return: 2.26

Enquiry: Same again, this time with "COc1cccc(/C=N/Nc2ncnc3c2cnn3-c2cccc(OC)c2)c1"
Return: 34.4
